- test_target: ROCK2 (Homo sapiens)
- Construct: purchased Upstate/Chemicon 14-451
- Sequence (O75116 11-552 limits assumed): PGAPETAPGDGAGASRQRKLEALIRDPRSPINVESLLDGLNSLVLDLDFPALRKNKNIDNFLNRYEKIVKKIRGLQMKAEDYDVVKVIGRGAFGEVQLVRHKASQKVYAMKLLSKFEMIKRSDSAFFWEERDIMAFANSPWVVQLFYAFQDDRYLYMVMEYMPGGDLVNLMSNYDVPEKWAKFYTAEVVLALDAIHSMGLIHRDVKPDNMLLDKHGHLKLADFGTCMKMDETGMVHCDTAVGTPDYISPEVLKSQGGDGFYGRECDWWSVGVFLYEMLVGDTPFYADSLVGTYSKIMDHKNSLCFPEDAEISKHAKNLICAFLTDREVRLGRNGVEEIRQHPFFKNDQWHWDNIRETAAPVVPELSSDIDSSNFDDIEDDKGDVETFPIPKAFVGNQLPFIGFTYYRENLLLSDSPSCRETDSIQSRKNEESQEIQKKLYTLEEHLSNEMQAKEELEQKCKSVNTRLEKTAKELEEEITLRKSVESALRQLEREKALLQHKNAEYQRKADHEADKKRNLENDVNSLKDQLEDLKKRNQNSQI
- assay_text: Rho kinase inhibition assay (IMAP fluorescence polarization), ROCK2;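 also: kinase reaction started with 10 µM ATP and run 60 min at room temperature, then phosphorylated substrate captured on IMAP beads for 30 min and fluorescence polarization read in mP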
- Assay type: biochemical
- test_settings: average Ki; read-out: ROCK2 Ki
// reported Ki per item
Write the answer as a number in nM, unit excluded.

line_notation: O=C(COc1cccc(CN2CCC[C@@H](Nc3ccc4[nH]ncc4c3)C2)c1)Nc1cccnc1
Ki / nM: 17.2
//
line_notation: CS(=O)(=O)Nc1cccc(CN2CC[C@@H](Nc3cccc4cnccc34)C2)c1
Ki / nM: 6.3
//
line_notation: Cc1c(CN2CC[C@@H](Nc3cccc4cnccc34)C2)cccc1NS(C)(=O)=O
Ki / nM: 2.6

Now let's try a different one.
Quick check: Ki of `Cc1ccc(CN2CCC[C@@H](Nc3ccc4[nH]ncc4c3)C2)cc1O` ?
3.6
